Task for the reader: assign each of the following molecules its reported GI50.
system: NCI-H226; test: NCI tumour cell line growth inhibition, 48 h
Active and inactive are the calls of the source. Cut-off read from the data, not from the text of the source: active = GI50 up to about 1.1 µM and inactive = higher.

## Input GET /values?readout=GI50&item= CCOC(=O)C1=CC(C)(C(=O)OCC)Nc2c(nc(SC)[nH]c2=O)N1 (stereo unspecified)
## Output > 10 µM (inactive)

## Input Report GI50 for CCCCS/C(=C(/C#N)C(N)=O)c1cc2c([nH]1)CCCC2 please.
## Output 15.1 µM (inactive)

## Input Quick check: GI50 of CCN(CC)CCNC(=O)c1ccccc1NC(=O)C(=O)Nc1ccccc1C(=O)NCCN(CC)CC ?
## Output > 100 µM (inactive)

## Input Which value of GI50 has been reported for c1cc(-c2sc(-c3ccncc3)c(-c3ccncc3)c2-c2ccncc2)ccn1 in the records?
## Output 14.6 µM (inactive)

## Input Which GI50 is reported for this molecule? CCOP1(=O)C=CC(Cl)=C(C)C1 (stereo unspecified)
## Output > 100 µM (inactive)

## Input Need GI50 of Cc1ccc(S(=O)(=O)Nc2cccc3c(=O)nc[nH]c23)cc1 , thanks.
## Output > 94.6 µM (inactive)

## Input Entry NC(=O)CCC(NCc1c2ccccc2[n+]([O-])c2ccccc12)C(=O)O (stereo unspecified) has what GI50?
## Output 60.1 µM (inactive)

## Input Query: GI50; subject: Cc1ccc(NC(=O)CC/C(CC(=O)c2ccc(Cl)cc2)=N\NC(=O)C(=O)NN)cc1C
## Output > 100 µM (inactive)

## Input Given the molecule Cc1ccc([S+]([O-])CC(CF)OCn2cc(C)c(=O)[nH]c2=O)cc1 (stereo unspecified) , what is its reported GI50?
## Output > 100 µM (inactive)

## Input Would you kindly share the measured GI50 for O=C1N[C@H]2c3c(Cl)sc(Cl)c3C(=O)[C@H]2O1 ?
## Output 17.9 µM (inactive)

## Input Could you tell me which GI50 is on file for CCCCN(CC)C(=O)C(=O)C1C(=O)Nc2ccccc2[S+]1[O-] (stereo unspecified) ?
## Output > 100 µM (inactive)
